target: recombinant autotaxin (Homo sapiens, UniProt Q13822); assay: Autotaxin assay (Amplex Red, LPC substrate); conditions: 75 μM LPC, Amplex Red fluorescence, ten 1:3 dilutions starting at 30 μM
Listed below: IC50 values for each entry.

Solved entries (count: 3):
{"molecule": "CCCNC(=O)C1CCN(c2nccc3nc(NCc4ccccc4Cl)ncc23)CC1", "IC50": "< 10 µM"}
{"molecule": "Fc1ccc(N2CCN(c3nccc4nc(NCc5ccccc5Cl)ncc34)CC2)cc1", "IC50": "< 5 µM"}
{"molecule": "O=C(C1CCCN(c2nccc3nc(NCc4ccc(Cl)cc4)ncc23)C1)N1CCN(c2ccccn2)CC1 (stereo not shown)", "IC50": "< 10 µM"}

Now turn to the next molecule.
Return reported IC50; argument: CC(C)NC(=O)C1CCCN(c2nccc3nc(NCc4ccccc4Cl)ncc23)C1 (stereo not shown)
< 5 µM
